Let's look at some compounds and their measured half-life.
Assay: Half-life in PBS buffer solution in the absence of human serum albumin
Format: ADME
Settings: PBS buffer without human serum albumin
Measure: half-life (min)

In [3]: df
Out[3]:
                                   compound  quantity_unit  numeric_readout
0  CC[C@@]1(O)C(=O)OCc2c1cc1n(c2=O)Cc2cc3ccccc3nc2-1            min             23.8
1  CC[C@@]1(O)C(=O)OCc2c1cc1n(c2=O)Cc2cc3c(CN(C)C)c(O)ccc3nc2-1            min             22.8
2  CCc1c2c(nc3ccc(O)cc13)-c1cc3c(c(=O)n1C2)COC(=O)[C@]3(O)CC [7-ETHYL-10-HYDROXYCAMPTOTHECIN]            min             19.9
3  CCC1(O)C(=O)OCc2c1cc1n(c2=O)Cc2cc3c(Cl)c4c(cc3nc2-1)OCO4 (stereo not drawn)            min             34.6
4  CC[C@@]1(O)C(=O)OCc2c1cc1n(c2=O)Cc2cc3c(N)cccc3nc2-1            min             17.9
5  CCc1c2c(nc3ccc(C4CCN(C(=O)OC)CC4)cc13)-c1cc3c(c(=O)n1C2)COC(=O)C3(O)CC (stereo not drawn)            min             25.6
6  CCC1(O)C(=O)OCc2c1cc1n(c2=O)Cc2cc3cc4c(cc3nc2-1)OCO4 (stereo not drawn)            min             31.7
7  CC[C@@]1(O)C(=O)OCc2c1cc1n(c2=O)Cc2cc3cc(O)ccc3nc2-1 [HYDROXYCAMPTOTHECIN]            min             22.1
